- target_or_test_system: LARP1 LaM (UniProt Q6PKG0-3 323-410)
- assay_method_text: ITC; 10 mM MES pH 6.3, 100 mM NaCl, 1 mM TCEP (HPLC and NMR buffer; ITC buffer not stated separately); ITC 293 K, NMR 25 C
property_measured: Kd

Query block: Query (binder): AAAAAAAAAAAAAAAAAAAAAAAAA (ssRNA) [A25] ; field requested: Kd
Result block: < 1000 nM
